Molecular target: MAGL (Mus musculus (Mouse), UniProt O35678)
Sequence (O35678 whole entry): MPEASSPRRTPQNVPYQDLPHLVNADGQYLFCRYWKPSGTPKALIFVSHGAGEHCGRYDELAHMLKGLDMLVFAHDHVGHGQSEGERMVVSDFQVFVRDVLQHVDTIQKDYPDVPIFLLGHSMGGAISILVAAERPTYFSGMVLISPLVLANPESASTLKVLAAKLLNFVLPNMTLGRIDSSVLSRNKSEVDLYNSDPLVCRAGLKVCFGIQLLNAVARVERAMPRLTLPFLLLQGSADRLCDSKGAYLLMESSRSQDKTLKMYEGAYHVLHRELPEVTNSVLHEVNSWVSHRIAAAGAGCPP
Assay: In vitro competitive activity-based protein profiling (mouse brain membrane fraction or cell lysates), MAGL band
Type: biochemical
Conditions: 1 μM, mouse; read-out: MAGL % Inh 1 μM (mouse)
measured-parameter: inhibition at 1 µM

| compound | inhibition at 1 µM |
| --- | --- |
| CC1(C(=O)O)CCN(c2cc(C(F)(F)F)ccc2CN2CCCC23CCN(C(=O)OC(C(F)(F)F)C(F)(F)F)CC3)C1 (stereo not drawn) | > 75% |
| O=C(O)C1CCN(c2cc(CN3CCC4(CCN(C(=O)OC(C(F)(F)F)C(F)(F)F)CC4)C3)cc(S(F)(F)(F)(F)F)c2)CC1 | > 75% |

# ---- query compound ----
## Task Reported inhibition at 1 µM, compound "CS(=O)(=O)C1CCN(c2cc(C(F)(F)F)ccc2CN2CCCC23CCN(C(=O)OC(C(F)(F)F)C(F)(F)F)CC3)CC1" : ____
## Result > 75%
